Every entry's value here was drawn from PubChem BioAssay AID652213.

Recorded activity values for a group of compounds are listed next.
- testTarget: Serine/threonine-protein phosphatase PP1-alpha catalytic subunit (Homo sapiens) (UniProt P62136)
- Sequence (P62136 whole entry, looked up): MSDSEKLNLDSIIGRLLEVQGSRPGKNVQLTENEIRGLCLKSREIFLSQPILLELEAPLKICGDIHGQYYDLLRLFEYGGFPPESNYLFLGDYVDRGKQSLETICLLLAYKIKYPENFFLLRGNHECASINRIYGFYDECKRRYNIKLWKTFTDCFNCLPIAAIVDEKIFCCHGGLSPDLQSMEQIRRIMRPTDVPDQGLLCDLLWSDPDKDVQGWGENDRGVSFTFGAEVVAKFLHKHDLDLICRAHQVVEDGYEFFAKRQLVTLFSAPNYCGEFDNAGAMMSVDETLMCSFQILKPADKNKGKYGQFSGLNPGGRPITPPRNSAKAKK
- experimentNotes: PP1 inhibitors, OMFP dephosphorylation, late-stage follow-up, biochemical, fluorescence, OMFP substrate, set 3 (AID 652213)
- measurementParameters: purified PP1, OMFP dephosphorylation, at 6.7 µM (top of the series)
Quick note: give the figure in %, leave out the unit.

Answered cases to consult:
{"compound": "CCCCn1c(NC(=O)c2ccco2)c(C(=O)OCC)c2nc3ccccc3nc21", "valueUnit": "%", "experimentalResult": -8.57}
{"compound": "COc1cc(Br)c(C(=O)c2nccc3cc(OC)c(OC)cc23)cc1OC", "valueUnit": "%", "experimentalResult": -11.4}
{"compound": "O=S(=O)(Cc1cc(NCc2ccccc2)nc(-c2ccccn2)n1)c1ccccc1", "valueUnit": "%", "experimentalResult": 50}
{"compound": "COc1ccc(CN2C(=O)Cc3c2nc(N)c2c(N)nc(N4CCCCC4)c(C#N)c32)cc1", "valueUnit": "%", "experimentalResult": -0.66}
{"compound": "O=C(O)c1cc(-c2ccc(Cl)c(Cl)c2)n(-c2ccc(F)cc2)n1", "valueUnit": "%", "experimentalResult": 57.7}
{"compound": "CCOC(=O)c1cnc(-n2nc(C)cc2C)nc1NCc1ccccc1", "valueUnit": "%", "experimentalResult": 62.5}

Reported activity, compound CCn1c2ccccc2c2cc(NC(=O)COC(=O)c3ccc(NC(=O)CC#N)cc3)ccc21 : ____
49

* * *

- testTarget: Serine/threonine-protein phosphatase PP1-alpha catalytic subunit (Homo sapiens) (UniProt P62136)
- experimentNotes: PP1 inhibitors, OMFP dephosphorylation, late-stage follow-up, biochemical, fluorescence, OMFP substrate, set 3 (AID 652213)
- measurementParameters: purified PP1, OMFP dephosphorylation, at 6.7 µM (top of the series)
Activity calls are given as the source filed them. The rule behind the calls is not given here.
Result category, one only: active, inactive

Please review the entries below; each comes with its answer.
{"compound": "CCOC(=O)c1sc(N2C(=O)C(O)=C(C(=O)c3ccco3)C2c2cccc([N+](=O)[O-])c2)nc1C (stereo not given)", "categoryLabel": "active"}
{"compound": "N#Cc1c(N2CCCC(O)C2)nc(N)c2c(N)nc3c(c12)CC(=O)N3C12CC3CC(CC(C3)C1)C2 (stereo not given)", "categoryLabel": "inactive"}
{"compound": "CCCN(CC1CC1)c1nc(N)c2c(N)nc(OC)cc2c1C#N", "categoryLabel": "inactive"}
{"compound": "O=C(NC1(O)C(=O)c2ccccc2C1=O)c1c(Cl)cccc1Cl", "categoryLabel": "inactive"}
{"compound": "c1ccc(Nc2nc(-c3ccccn3)cs2)cc1", "categoryLabel": "active"}
{"compound": "c1ccc(-c2nccc(-c3ccc(-n4cnc5ccccc54)cc3)n2)nc1", "categoryLabel": "active"}

Hey, what did the test say about CCOC(=O)c1cnc(-n2nc(C)cc2C)nc1NCCc1ccccc1 ?
active

What did this assay record as the result for COc1ccc(NC(=S)Nc2ccc3nsnc3c2)cc1 ?
inactive

Returns: the outcome recorded for O=C(O)c1cc(-c2ccc(Cl)cc2)n(-c2cccc(Cl)c2)n1 in this assay.
active

Record lookup: outcome of this test for N#Cc1c(-c2ccc(Cl)cc2)cc(-c2cccs2)nc1SCC(=O)O ?
active

* * *

// reported activity per item
- testTarget: Serine/threonine-protein phosphatase PP1-alpha catalytic subunit (Homo sapiens)
- experimentNotes: PP1 inhibitors, OMFP dephosphorylation, late-stage follow-up, biochemical, fluorescence, OMFP substrate, set 3 (AID 652213)
- measurementParameters: purified PP1, OMFP dephosphorylation, at 6.7 µM (top of the series)
Entry rule: numbers only, all in %.

Observe how each entry below is paired with its result.
{"compound": "COc1ccc(NC(=O)C2C3CCC(O3)C2C(=O)O)c(OC)c1 (stereo not drawn)", "valueUnit": "%", "experimentalResult": 35.3}
{"compound": "CCOC(=O)c1sc2nc3c(SCC(=O)O)cc(C(=O)c4cc(F)ccc4O)cn3c(=O)c2c1C", "valueUnit": "%", "experimentalResult": 65.9}
{"compound": "Cc1cc(C)c(S(=O)(=O)/N=C2\\C=C(Sc3ncn[nH]3)C(=O)c3ccccc32)cc1C", "valueUnit": "%", "experimentalResult": 5.84}

Given the compound O=C(NC1(O)C(=O)c2ccccc2C1=O)c1ccccc1 , what is its reported activity?
-6.67

Name the reported activity value associated with the compound COc1ccc(Cn2c(N)c(C(=O)NCc3ccco3)c3nc4ccccc4nc32)cc1OC
3.93

Need activity, item Cc1[nH]n(-c2ccccc2)c(=O)c1C(c1ccc([N+](=O)[O-])cc1)c1c(C)[nH]n(-c2ccccc2)c1=O
-6.69

* * *

- testTarget: Serine/threonine-protein phosphatase PP1-alpha catalytic subunit (Homo sapiens)
- experimentNotes: PP1 inhibitors, OMFP dephosphorylation, late-stage follow-up, biochemical, fluorescence, OMFP substrate, set 3 (AID 652213)
- measurementParameters: purified PP1, OMFP dephosphorylation, at 6.7 µM (top of the series)
measureName: activity (%)
The answer is to be given in %; state only the numeric part.

See these solved cases before continuing.
{"compound": "Oc1ccccc1/C=N/Nc1cc(N2CCCC2)nc(N2CCCC2)n1", "activity, %": 4.03}
{"compound": "COc1cnc(-c2ccccn2)nc1Sc1cccc(Cl)c1", "activity, %": 64.1}
{"compound": "O=C(O)C1C2CCC(O2)C1C(=O)NC1CCCCC1 (configuration not stated)", "activity, %": 26.2}
{"compound": "COc1cnc(-c2ccccn2)nc1Sc1ccccc1", "activity, %": 64.9}
{"compound": "COc1ccc(C(=O)c2nccc3cc(OC)c(OC)cc23)cc1OC", "activity, %": 5.53}
{"compound": "COc1cnc(-c2ccccn2)nc1Oc1cccc(C(F)(F)F)c1", "activity, %": -4.64}
{"compound": "O=C1Nc2ccccc2N2CCCC12 (configuration not stated)", "activity, %": -7.49}
{"compound": "Cc1ccc(-n2nc(C(=O)O)cc2-c2ccc(Cl)cc2)cc1", "activity, %": 54.8}

Shifting focus to the compound that follows.
Provide value of activity for this record tested with Serine/threonine-protein phosphatase PP1-alpha catalytic subunit (Homo sapiens): COc1ccc(Sc2nc(-c3ccccn3)ncc2OC)cc1
72.4

* * *

activity: recorded values
- testTarget: Serine/threonine-protein phosphatase PP1-alpha catalytic subunit (Homo sapiens) (UniProt P62136)
- experimentNotes: PP1 inhibitors, OMFP dephosphorylation, late-stage follow-up, biochemical, fluorescence, OMFP substrate, set 3 (AID 652213)
- measurementParameters: purified PP1, OMFP dephosphorylation, at 6.7 µM (top of the series)
Active and inactive are the calls of the source. How the calls were made is not given here.

May I ask what activity has been recorded for O=c1[nH]c(Nc2ccccc2)cc2ccccc12 ?
4.07% (inactive)

Given the compound O=C(Nc1nc(-c2ccccn2)cs1)C1CC(=O)N(c2ccc3c(c2)OCCO3)C1 (stereo not drawn) , what is its reported activity?
42.3%

# lookup: activity of COc1ccccc1Sc1nc(-c2ccccn2)ncc1OC
63.1%

* * *

- testTarget: Serine/threonine-protein phosphatase PP1-alpha catalytic subunit (Homo sapiens)
- experimentNotes: PP1 inhibitors, OMFP dephosphorylation, late-stage follow-up, biochemical, fluorescence, OMFP substrate, set 3 (AID 652213)
- measurementParameters: purified PP1, OMFP dephosphorylation, at 6.7 µM (top of the series)
measureName: activity (%)
Unit % implied. Number only.

Item under review: CCOC(=O)C1=C(C)OC2(O)c3ccccc3C(=O)C12O (stereo unspecified) . Reported activity?
27.1

// activity lookup, key: CCCCN(CC)c1nc(N)c2c(N)nc(OCC)cc2c1C#N
4.31

I would be grateful if you could share the reported activity for CC(C)(CS(=O)(=O)[O-])NC(=O)CC[N+](C)(C)CCO .
49.7

Need activity, item Nc1cc2nsnc2cc1Br
-10.1

For the molecule shown here, CCOC(=O)c1cnc(-n2cc(C)cn2)nc1NCc1ccc2c(c1)OCO2 , give the reported activity.
16.5

Can you share its activity? I mean this molecule: COc1cnc(-c2ccccn2)nc1Sc1ccc(C)cc1
62.9

* * *

// reported activity per item
- testTarget: Serine/threonine-protein phosphatase PP1-alpha catalytic subunit (Homo sapiens)
- experimentNotes: PP1 inhibitors, OMFP dephosphorylation, late-stage follow-up, biochemical, fluorescence, OMFP substrate, set 3 (AID 652213)
- measurementParameters: purified PP1, OMFP dephosphorylation, at 6.7 µM (top of the series)
All answers are understood in %, so give the number only.

Before answering, review these 2 worked examples.
{"molecule": "COc1ccc(OCCCC(=O)Nc2nc(-c3ccccn3)cs2)cc1", "experimentalResult": 26.8}
{"molecule": "CN1CCN(C(c2ccccn2)c2cc(Cl)c3cccnc3c2O)CC1 (stereo not drawn)", "experimentalResult": 69.7}

In the following, a different molecule is considered.
If you can, please state the reported activity value of O=C1CCCC2=C1C1(O)C(=O)c3ccccc3C1(O)O2 (stereo not drawn) .
3.07
